study-system: Voltage-dependent L-type calcium channel subunit alpha-1C (Rattus norvegicus)
Sequence (P22002 whole entry): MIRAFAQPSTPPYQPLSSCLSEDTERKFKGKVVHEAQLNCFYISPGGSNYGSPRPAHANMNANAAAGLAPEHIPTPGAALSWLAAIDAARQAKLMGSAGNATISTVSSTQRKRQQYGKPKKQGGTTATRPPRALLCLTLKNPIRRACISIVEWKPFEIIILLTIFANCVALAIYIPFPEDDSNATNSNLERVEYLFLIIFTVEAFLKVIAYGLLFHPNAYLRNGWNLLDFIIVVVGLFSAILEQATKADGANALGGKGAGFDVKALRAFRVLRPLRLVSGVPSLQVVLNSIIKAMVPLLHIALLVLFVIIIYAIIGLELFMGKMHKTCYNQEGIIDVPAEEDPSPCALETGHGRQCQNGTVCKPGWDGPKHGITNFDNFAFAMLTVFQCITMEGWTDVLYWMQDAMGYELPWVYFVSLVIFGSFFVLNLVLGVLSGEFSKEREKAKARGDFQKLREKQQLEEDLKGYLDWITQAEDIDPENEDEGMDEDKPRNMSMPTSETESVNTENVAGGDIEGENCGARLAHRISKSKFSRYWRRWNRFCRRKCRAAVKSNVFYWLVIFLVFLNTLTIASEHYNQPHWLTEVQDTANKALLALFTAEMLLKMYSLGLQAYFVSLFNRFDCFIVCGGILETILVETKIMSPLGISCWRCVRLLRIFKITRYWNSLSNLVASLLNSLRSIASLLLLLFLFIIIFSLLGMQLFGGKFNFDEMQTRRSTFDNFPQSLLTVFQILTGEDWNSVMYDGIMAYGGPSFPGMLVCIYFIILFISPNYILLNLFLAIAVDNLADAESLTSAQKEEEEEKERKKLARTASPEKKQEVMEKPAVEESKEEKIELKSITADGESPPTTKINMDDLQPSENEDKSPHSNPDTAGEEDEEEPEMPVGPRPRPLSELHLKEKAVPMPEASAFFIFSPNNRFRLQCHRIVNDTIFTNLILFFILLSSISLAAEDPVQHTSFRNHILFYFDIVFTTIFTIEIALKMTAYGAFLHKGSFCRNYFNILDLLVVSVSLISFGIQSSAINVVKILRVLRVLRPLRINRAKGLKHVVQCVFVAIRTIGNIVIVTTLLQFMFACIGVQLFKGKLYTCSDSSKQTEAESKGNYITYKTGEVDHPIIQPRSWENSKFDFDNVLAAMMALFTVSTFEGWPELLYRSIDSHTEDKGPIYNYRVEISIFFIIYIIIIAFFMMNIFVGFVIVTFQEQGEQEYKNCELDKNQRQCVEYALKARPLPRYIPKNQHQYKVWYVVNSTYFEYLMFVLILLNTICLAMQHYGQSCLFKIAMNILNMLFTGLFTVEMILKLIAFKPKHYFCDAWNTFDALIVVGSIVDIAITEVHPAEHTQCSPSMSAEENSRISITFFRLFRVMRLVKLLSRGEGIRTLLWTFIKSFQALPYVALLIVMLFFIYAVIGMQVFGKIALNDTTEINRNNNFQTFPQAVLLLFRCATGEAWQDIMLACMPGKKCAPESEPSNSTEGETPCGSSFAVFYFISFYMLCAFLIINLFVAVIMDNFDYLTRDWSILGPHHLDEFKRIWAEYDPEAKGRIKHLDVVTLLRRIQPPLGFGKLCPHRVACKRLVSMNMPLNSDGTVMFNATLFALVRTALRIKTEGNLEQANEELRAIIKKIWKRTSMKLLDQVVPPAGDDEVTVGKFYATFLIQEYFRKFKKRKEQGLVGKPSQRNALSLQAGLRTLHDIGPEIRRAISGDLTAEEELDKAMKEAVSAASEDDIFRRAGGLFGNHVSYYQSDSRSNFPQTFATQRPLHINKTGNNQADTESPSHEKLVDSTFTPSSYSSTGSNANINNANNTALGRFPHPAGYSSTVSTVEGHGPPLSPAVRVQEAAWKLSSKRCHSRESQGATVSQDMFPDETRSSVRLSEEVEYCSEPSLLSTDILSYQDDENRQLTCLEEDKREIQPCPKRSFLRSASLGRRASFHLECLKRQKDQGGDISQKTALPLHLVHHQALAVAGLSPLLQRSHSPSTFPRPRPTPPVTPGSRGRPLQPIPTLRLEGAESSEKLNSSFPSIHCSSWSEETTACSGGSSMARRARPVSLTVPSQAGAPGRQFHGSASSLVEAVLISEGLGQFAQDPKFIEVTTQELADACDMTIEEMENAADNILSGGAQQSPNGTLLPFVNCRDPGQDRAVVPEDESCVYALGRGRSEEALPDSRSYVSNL
run-description: Inhibition of [3H](+)-PN200-110 binding to L-type calcium channel 1,4-DHP binding site of rat ventricular myocytes
Format: cell-based, Ventricular myocyte
Listed here are molecules together with their documented Ki.
Note: unit nM is implicit; provide only the numeric part.

>>> numeric_result("COC(=O)C1=C(C)NC(C)=C(C(=O)OCC[N+](C)(C)C)C1c1ccccc1C(F)(F)F (configuration not stated)")
33.2

Please examine the following record next.
Item CCCCCCCCCCCCCCOC(=O)C1=C(C)NC(C)=C(C(=O)OC)C1c1ccccc1C(F)(F)F (configuration not stated) with Voltage-dependent L-type calcium channel subunit alpha-1C (Rattus norvegicus) - Ki?
15.7
